From: patent US20070117743A1

system: LoVo-Dox; experiment: SRB colorimetric assay of cell growth and viability, LoVo-Dox; type: cell-based, human; settings: 48 hours exposure
Where a SMILES comes first, the peptide text is derived from it. Bridges are numbered along the chain shown (N, C = ends). [ ]: non-standard residue; d: D form. The star is where a group is joined. d(aIle) = CC[C@H](C)[C@@H](N)C(=O)O; d(aThr) = C[C@@H](O)[C@@H](N)C(=O)O; Hexanoyl(5-Me) = CC(C)CCCC(=O)*; Orn = NCCC[C@H](N)C(=O)O; Dhb = C/C=C(\N)C(=O)O
Quantity Measured: GI50 (nM)
Hi! Could you send only the number? It should be in nM, unit omitted.

Query :: Quick check: GI50 on LoVo-Dox, item C/C=C1\NC(=O)[C@H](Cc2ccccc2)NC(=O)[C@@H](C(C)C)NC(=O)[C@@H]([C@@H](C)CC)NC(=O)[C@H](NC(=O)[C@H](NC(=O)[C@H](CCCN)NC(=O)[C@H]2CCCN2C(=O)[C@H](NC(=O)[C@@H](NC(=O)[C@@H](NC(=O)[C@@H](CC2CCCCC2)NC(=O)CCCC(C)C)[C@@H](C)O)C(C)C)C(C)C)[C@@H](C)CC)[C@@H](C)OC(=O)[C@H](C(C)C)NC1=O [Compound 8, [D-Cha^13]-KF] ?
Result :: 986

Query :: Quick check: GI50 on LoVo-Dox, item C/C=C1\NC(=O)[C@H](Cc2ccccc2)NC(=O)[C@@H](C(C)C)NC(=O)[C@@H]([C@@H](C)CC)NC(=O)[C@H](NC(=O)[C@H](NC(=O)[C@H](CCCN)NC(=O)[C@H]2CCCN2C(=O)[C@H](NC(=O)[C@@H](NC(=O)[C@@H](NC(=O)[C@H](NC(=O)CCCCCCC)C(C)C)[C@@H](C)O)C(C)C)C(C)C)[C@@H](C)CC)[C@@H](C)OC(=O)[C@H](C(C)C)NC1=O [Compound 18, [Oct^14]-KF] ?
Result :: 107

Query :: Quick check: GI50 on LoVo-Dox, item C/C=C1\NC(=O)[C@H](Cc2ccccc2)NC(=O)[C@@H](C(C)C)NC(=O)[C@@H]([C@@H](C)CC)NC(=O)[C@H](NC(=O)[C@H](NC(=O)[C@H](CCCN)NC(=O)[C@H]2CCCN2C(=O)[C@H](NC(=O)[C@@H](NC(=O)[C@@H](NC(=O)[C@H](NC(=O)CCCC(C)C)C(C)C)C(C)C)C(C)C)C(C)C)[C@@H](C)CC)[C@@H](C)OC(=O)[C@H](C(C)C)NC1=O [Compound 6, [Val^12]-KF] ({Hexanoyl(5-Me)}-[dV]VV[dV][dP][Orn][d(aIle)][d(aThr)][d(aIle)][dV]F[Dhb]V; ester 8-C) ?
Result :: 159

Query :: Quick check: GI50 on LoVo-Dox, item C/C=C1\NC(=O)[C@H](Cc2ccccc2)NC(=O)[C@@H](C(C)C)NC(=O)[C@@H]([C@@H](C)CC)NC(=O)[C@H](NC(=O)[C@H](NC(=O)[C@H](CCCN)NC(=O)[C@H]2CCCN2C(=O)[C@H](NC(=O)[C@@H](NC(=O)[C@@H](NC(=O)[C@H](NC(=O)CCCCCCCCCC)C(C)C)[C@@H](C)O)C(C)C)C(C)C)[C@@H](C)CC)[C@@H](C)OC(=O)[C@H](C(C)C)NC1=O [Compound 15, [Und^14]-KF] ?
Result :: 40.8

Query :: Quick check: GI50 on LoVo-Dox, item C/C=C1\NC(=O)[C@H](Cc2ccccc2)NC(=O)[C@@H](C(C)C)NC(=O)[C@@H]([C@@H](C)CC)NC(=O)[C@H](NC(=O)[C@H](NC(=O)[C@H](CCCN)NC(=O)[C@H]2CCCN2C(=O)[C@H](NC(=O)[C@H](CCCN)NC(=O)[C@@H](NC(=O)[C@H](NC(=O)CCCC(C)C)C(C)C)[C@@H](C)O)C(C)C)[C@@H](C)CC)[C@@H](C)OC(=O)[C@H](C(C)C)NC1=O [Compound 49, [Orn^11]-KF] ({Hexanoyl(5-Me)}-[dV]T[Orn][dV][dP][Orn][d(aIle)][d(aThr)][d(aIle)][dV]F[Dhb]V; ester 8-C) ?
Result :: 3220
